Molecular target: ITK (human)
Experiment: radiometric filter-binding kinase assay, Kinase HotSpot
Details: compound 0.5 µM; ATP 10 µM
Collected residual activity values appear next to each entry.
MEASUREMENT LABEL: residual activity (%)

>  <MOLECULE>
CS(=O)c1ccc(-c2nc(-c3ccc(F)cc3)c(-c3ccncc3)[nH]2)cc1 (stereo unspecified)

>  <OUTPUT UNIT>
%

>  <READOUT VALUE>
97

$$$$
>  <MOLECULE>
O=C1Nc2ccccc2/C1=C\c1c(Cl)[nH]c2ccccc12

>  <OUTPUT UNIT>
%

>  <READOUT VALUE>
104

$$$$
>  <MOLECULE>
CCCNC(=O)Nc1ccc(Oc2ncnc3cc(OC)c(OC)cc23)cc1Cl

>  <OUTPUT UNIT>
%

>  <READOUT VALUE>
96.9

$$$$
>  <MOLECULE>
COc1cc2nccc(Oc3ccc(NC(=S)NC(=O)c4ccccc4C)cc3)c2cc1OC

>  <OUTPUT UNIT>
%

>  <READOUT VALUE>
80.6

$$$$
>  <MOLECULE>
COc1cc2ncnc(Nc3ccc(F)c(Cl)c3)c2cc1OCCCN1CCOCC1

>  <OUTPUT UNIT>
%

>  <READOUT VALUE>
99.9

$$$$
>  <MOLECULE>
O=c1cc(N2CCNCC2)oc2c(-c3ccccc3)cccc12

>  <OUTPUT UNIT>
%

>  <READOUT VALUE>
88.1

$$$$
>  <MOLECULE>
COc1ccc(-c2cnc3c(-c4ccsc4)cnn3c2)cc1

>  <OUTPUT UNIT>
%

>  <READOUT VALUE>
95.2

$$$$
>  <MOLECULE>
O=C1Cc2c([nH]c3ccc([N+](=O)[O-])cc23)-c2ccccc2N1

>  <OUTPUT UNIT>
%

>  <READOUT VALUE>
97.1

$$$$
>  <MOLECULE>
CC(C)[C@H](CO)Nc1nc(Nc2cccc(Cl)c2)c2ncn(C(C)C)c2n1

>  <OUTPUT UNIT>
%

>  <READOUT VALUE>
86.9

$$$$
>  <MOLECULE>
Oc1ccc(-c2nc(-c3ccc(F)cc3)c(-c3ccncc3)[nH]2)cc1

>  <OUTPUT UNIT>
%

>  <READOUT VALUE>
90.9

$$$$
>  <MOLECULE>
C#Cc1cccc(Nc2ncnc3cc(OCCOC)c(OCCOC)cc23)c1

>  <OUTPUT UNIT>
%

>  <READOUT VALUE>
106

$$$$

----------
Target: NEK4 (human) (UniProt P51957)
Sequence (P51957 whole entry, looked up): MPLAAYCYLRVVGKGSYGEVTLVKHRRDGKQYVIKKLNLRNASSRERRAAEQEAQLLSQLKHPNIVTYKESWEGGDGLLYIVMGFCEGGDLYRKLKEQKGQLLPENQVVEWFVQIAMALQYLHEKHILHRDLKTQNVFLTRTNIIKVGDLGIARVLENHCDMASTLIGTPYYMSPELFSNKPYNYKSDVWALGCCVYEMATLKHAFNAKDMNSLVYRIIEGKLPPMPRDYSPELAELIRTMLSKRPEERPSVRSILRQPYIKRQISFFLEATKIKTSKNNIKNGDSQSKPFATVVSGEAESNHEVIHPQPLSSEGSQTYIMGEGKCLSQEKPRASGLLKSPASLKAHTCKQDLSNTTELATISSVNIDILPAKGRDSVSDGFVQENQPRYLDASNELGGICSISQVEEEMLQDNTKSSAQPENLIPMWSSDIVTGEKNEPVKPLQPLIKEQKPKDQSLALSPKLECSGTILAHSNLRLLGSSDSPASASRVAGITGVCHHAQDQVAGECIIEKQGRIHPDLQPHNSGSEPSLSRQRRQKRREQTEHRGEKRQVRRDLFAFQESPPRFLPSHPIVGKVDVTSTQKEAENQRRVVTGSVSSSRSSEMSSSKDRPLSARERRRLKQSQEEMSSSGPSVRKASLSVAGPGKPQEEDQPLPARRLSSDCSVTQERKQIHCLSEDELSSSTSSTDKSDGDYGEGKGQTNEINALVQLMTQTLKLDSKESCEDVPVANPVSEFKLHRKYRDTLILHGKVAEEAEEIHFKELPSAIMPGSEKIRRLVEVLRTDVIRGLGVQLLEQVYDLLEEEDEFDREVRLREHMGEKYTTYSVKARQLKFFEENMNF
Experiment: radiometric filter-binding kinase assay, Kinase HotSpot
Details: compound 0.5 µM; ATP 10 µM
MEASUREMENT LABEL: residual activity (%)

>  <QUERY SMILES>
O=c1cc(N2CCNCC2)oc2c(-c3ccccc3)cccc12

>  <READOUT VALUE>
86.4

$$$$
>  <QUERY SMILES>
CC(C)[C@H](CO)Nc1nc(Nc2cccc(Cl)c2)c2ncn(C(C)C)c2n1

>  <READOUT VALUE>
94.4

$$$$
>  <QUERY SMILES>
CC(C)n1cnc2c(Nc3cccc(Cl)c3)nc(NCCO)nc21

>  <READOUT VALUE>
89.1

$$$$
>  <QUERY SMILES>
Cc1cc2ncc(-c3ccccc3)nc2cc1C

>  <READOUT VALUE>
99.3

$$$$
>  <QUERY SMILES>
NC(=O)c1ccc(N(C(N)=O)c2c(F)cccc2F)nc1-c1ccc(F)cc1F

>  <READOUT VALUE>
104

$$$$
>  <QUERY SMILES>
O=C1Nc2cc(Br)ccc2/C1=C1/Nc2ccccc2/C1=N\O

>  <READOUT VALUE>
96.7

$$$$
>  <QUERY SMILES>
Nc1nc(Nc2ccc(S(N)(=O)=O)cc2)nn1C(=S)Nc1c(F)cccc1F

>  <READOUT VALUE>
60.5

$$$$
>  <QUERY SMILES>
Nc1nc(Nc2ccc(S(N)(=O)=O)cc2)nn1C(=O)c1c(F)cccc1F

>  <READOUT VALUE>
79.2

$$$$
>  <QUERY SMILES>
COc1cc2ncnc(Nc3ccc(F)c(Cl)c3)c2cc1OCCCN1CCOCC1

>  <READOUT VALUE>
103

$$$$
>  <QUERY SMILES>
CCCNC(=O)Nc1ccc(Oc2ncnc3cc(OC)c(OC)cc23)cc1Cl

>  <READOUT VALUE>
76

$$$$
>  <QUERY SMILES>
COc1cc2nccc(Oc3ccc(NC(=S)NC(=O)c4ccccc4C)cc3)c2cc1OC

>  <READOUT VALUE>
97.6

$$$$
